# System: P-gp (MDR1)
# assay-text: MDCK-MDR1 assay (permeability, efflux ratio)
# Format: in vitro ADME
# assay-context: dog, Papp BA/Papp AB, 60-minute incubation
// values below are reported efflux ratio at 60 min, 0.5 μM

{"mol": "C[C@@]1(F)C[C@]2(F)COC[C@]2(c2cc(NC(=O)c3cnc(C(F)F)cn3)ccc2F)N=C1N", "efflux ratio at 60 min, 0.5 μM": 1.23}
{"mol": "[2H]C([2H])([2H])Oc1ccc(C(=O)Nc2ccc(F)c([C@]34COC[C@H]3C[C@@](F)(CF)C(N)=N4)c2)nc1", "efflux ratio at 60 min, 0.5 μM": 1.85}
{"mol": "C[C@]1(F)C[C@]2(F)COC[C@]2(c2cc(NC(=O)c3ccc(Cl)cn3)ccc2F)N=C1N", "efflux ratio at 60 min, 0.5 μM": 1.01}
{"mol": "COc1cnc(C(=O)Nc2cc(F)c(F)c([C@]34COC[C@H]3C[C@@](F)(CF)C(N)=N4)c2)cn1", "efflux ratio at 60 min, 0.5 μM": 0.82}
{"mol": "COc1cnc(C(=O)Nc2cc(F)c(F)c([C@]34COC[C@H]3C[C@](F)(CF)C(N)=N4)c2)cn1", "efflux ratio at 60 min, 0.5 μM": 1.31}
{"mol": "NC1=N[C@@]2(c3cc(NC(=O)c4ccc(F)cn4)ccc3F)COC[C@H]2C[C@@]1(F)CF", "efflux ratio at 60 min, 0.5 μM": 0.71}
{"mol": "COc1ccc(C(=O)Nc2ccc(F)c([C@]34COC[C@H]3C[C@@](F)(CF)C(N)=N4)c2)nc1", "efflux ratio at 60 min, 0.5 μM": 0.61}
{"mol": "C[C@@]1(F)C[C@]2(F)COC[C@]2(c2cc(NC(=O)c3ccc(Cl)cn3)ccc2F)N=C1N", "efflux ratio at 60 min, 0.5 μM": 0.91}
{"mol": "NC1=N[C@@]2(c3cc(NC(=O)c4ccc(F)cn4)ccc3F)COC[C@H]2C[C@]1(F)CF", "efflux ratio at 60 min, 0.5 μM": 0.97}
{"mol": "C[C@@]1(F)C[C@]2(F)COC[C@]2(c2cc(NC(=O)c3ccc(F)cn3)ccc2F)N=C1N", "efflux ratio at 60 min, 0.5 μM": 1.67}
{"mol": "COc1ccc(C(=O)Nc2ccc(F)c([C@]34COC[C@H]3C[C@](F)(CF)C(N)=N4)c2)nc1", "efflux ratio at 60 min, 0.5 μM": 1.19}
{"mol": "NC1=N[C@@]2(c3cc(NC(=O)c4ccc(F)cn4)cc(F)c3F)COC[C@H]2C[C@@]1(F)CF", "efflux ratio at 60 min, 0.5 μM": 0.89}
{"mol": "COc1ccc(C(=O)Nc2cc(F)c(F)c([C@]34COC[C@H]3C[C@](F)(CF)C(N)=N4)c2)nc1", "efflux ratio at 60 min, 0.5 μM": 1.25}
{"mol": "COc1cnc(C(=O)Nc2ccc(F)c([C@]34COC[C@@]3(F)C[C@](C)(F)C(N)=N4)c2)cn1", "efflux ratio at 60 min, 0.5 μM": 0.91}
{"mol": "C[C@]1(F)C[C@]2(F)COC[C@]2(c2cc(NC(=O)c3ccc(F)cn3)ccc2F)N=C1N", "efflux ratio at 60 min, 0.5 μM": 1.27}
{"mol": "C[C@]1(F)C[C@]2(F)COC[C@]2(c2cc(NC(=O)c3cnc(C(F)F)cn3)ccc2F)N=C1N", "efflux ratio at 60 min, 0.5 μM": 0.96}
{"mol": "Cc1csc(C(=O)Nc2ccc(F)c([C@]34COC[C@@]3(F)C[C@@](C)(F)C(N)=N4)c2)n1", "efflux ratio at 60 min, 0.5 μM": 1.33}
{"mol": "Cc1nc(C(=O)Nc2ccc(F)c([C@]34COC[C@@]3(F)C[C@@](C)(F)C(N)=N4)c2)co1", "efflux ratio at 60 min, 0.5 μM": 2.46}
{"mol": "COc1cnc(C(=O)Nc2ccc(F)c([C@]34COC[C@@]3(F)C[C@@](C)(F)C(N)=N4)c2)cn1", "efflux ratio at 60 min, 0.5 μM": 0.94}
